Biological target: human TRPA1 (Homo sapiens (Human), UniProt O75762)
Sequence (O75762 whole entry): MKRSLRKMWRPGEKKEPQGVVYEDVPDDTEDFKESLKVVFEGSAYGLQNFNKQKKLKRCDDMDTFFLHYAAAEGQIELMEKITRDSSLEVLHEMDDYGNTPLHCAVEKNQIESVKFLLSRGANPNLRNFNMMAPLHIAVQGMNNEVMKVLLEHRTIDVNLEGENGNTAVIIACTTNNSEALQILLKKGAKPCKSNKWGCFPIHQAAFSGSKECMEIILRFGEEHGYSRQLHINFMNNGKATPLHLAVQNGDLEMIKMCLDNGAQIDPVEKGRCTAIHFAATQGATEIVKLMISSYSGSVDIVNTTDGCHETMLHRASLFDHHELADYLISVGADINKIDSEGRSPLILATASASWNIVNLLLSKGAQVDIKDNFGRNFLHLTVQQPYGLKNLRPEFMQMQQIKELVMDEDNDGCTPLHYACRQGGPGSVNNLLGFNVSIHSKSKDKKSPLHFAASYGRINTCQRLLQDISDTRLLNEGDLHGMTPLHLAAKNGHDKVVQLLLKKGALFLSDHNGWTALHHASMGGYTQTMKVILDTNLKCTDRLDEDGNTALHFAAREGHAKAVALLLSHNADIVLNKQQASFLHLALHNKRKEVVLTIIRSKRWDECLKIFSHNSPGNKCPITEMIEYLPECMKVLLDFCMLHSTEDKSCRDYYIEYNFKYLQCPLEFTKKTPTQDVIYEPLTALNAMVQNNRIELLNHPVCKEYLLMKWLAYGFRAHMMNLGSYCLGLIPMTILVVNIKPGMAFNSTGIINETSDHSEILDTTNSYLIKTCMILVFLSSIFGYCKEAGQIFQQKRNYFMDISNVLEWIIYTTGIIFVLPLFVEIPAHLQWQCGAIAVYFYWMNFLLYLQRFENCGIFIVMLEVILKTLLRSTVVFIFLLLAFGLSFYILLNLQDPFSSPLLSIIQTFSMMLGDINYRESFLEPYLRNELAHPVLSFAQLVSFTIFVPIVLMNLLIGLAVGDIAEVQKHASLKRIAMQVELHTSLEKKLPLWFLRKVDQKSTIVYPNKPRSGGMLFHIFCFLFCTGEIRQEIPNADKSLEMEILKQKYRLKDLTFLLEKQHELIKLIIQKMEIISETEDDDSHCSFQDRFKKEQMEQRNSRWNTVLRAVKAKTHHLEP
Test: IC50 determination on the human TRPA1 channel, calcium fluorescence (Hamamatsu FDSS plate reader)
Assay type: cell-based
Settings: CHO cells expressing human TRPA1; block of cinnamaldehyde induced calcium influx; 20 minutes compound incubation; Hill coefficient fixed to 1.5; read-out: hTRPA1 AUC IC50
Experimental: IC50s (effective concentration) of compounds on the human TRPA1 channel were determined using a Hamamatsu FDSS fluorescence plate reader. […] The assay buffer was Hank's Balanced Salt Solution (HBSS) containing 20 mM HEPES (pH readjusted to 7.4) along with 0.02% BSA. Following dye load and plate cool down, compounds were added to the cells using the FDSS while monitoring fluorescence to determine whether any of the test compounds have TRPA1 agonist activity. […]
outcome-measure: IC50 (nM)

O=C(NCc1cc(-c2ccc(C(F)(F)F)nc2)ncn1)[C@@H]1[C@@H](F)CCN1S(=O)(=O)c1ccc(F)cc1
23
Cc1nc(CNC(=O)[C@@H]2C[C@@H](F)CN2S(=O)(=O)c2ccc(F)cc2)cc(-c2ccc(C(F)(F)F)nc2)n1
87
O=C(NCc1cc(-c2ccc(C(F)(F)F)nc2)ncn1)[C@@H]1[C@H]2CC[C@H](C2)N1S(=O)(=O)c1ccc(F)cc1
40
O=C(NCc1cc(-c2ccc(C3CC3)cc2)ncn1)[C@@H]1C[C@@H](F)CN1S(=O)(=O)c1ccc(F)cc1
107
O=C(NCc1cc(-c2ccc(C(F)(F)F)nc2)ncn1)[C@@H]1C[C@@H](F)CN1S(=O)(=O)c1ccc(Cl)s1
27
O=C(NCc1cc(-c2ccc(C(F)(F)F)nc2)ncn1)[C@@H]1C[C@@H](F)CN1S(=O)(=O)c1ccc(F)c(F)c1
126
O=C(NCc1cc(-c2ccc(C(F)(F)F)nc2)ncn1)[C@@H]1C[C@@H](F)CN1S(=O)(=O)c1cncc(F)c1
3000
O=C(NCc1cn(-c2ccc(C(F)(F)F)cc2)nc1Cl)[C@@H]1C[C@@H](F)CN1S(=O)(=O)c1ccc(F)cc1
8

1. O=C(NCc1cc(-c2ccc(C(F)(F)F)cc2)ncn1)[C@@H]1C[C@@H](F)CN1S(=O)(=O)c1cncc(F)c1
2. O=C(NCc1cc(N2CCC(C(F)(F)F)CC2)c(F)cn1)[C@@H]1C[C@@H](F)CN1S(=O)(=O)c1ccc(F)cc1
**Query** // returns 1 or 2 , whichever has the lower IC50 Reply with the label of the item you choose.
**Result** 2

a. O=C(NCc1cc(-c2ccc(C3CC3)nc2)ncn1)[C@@H]1C[C@@H](F)CN1S(=O)(=O)c1ccc(F)cc1
b. O=C(NCc1cc(-c2ccc(OC(F)(F)F)cc2)ncn1)[C@@H]1C[C@@H](F)CN1S(=O)(=O)c1ccc(F)cc1
**Query** In the pair a and b , the larger recorded IC50 belongs to which? Identify your pick by its label.
**Result** a

====

Target: UniProtKB O75762
Test: FLIPR Tetra calcium influx assay, block of cinnamaldehyde-induced calcium influx in CHO cells expressing TRPA1 (human)
Type: cell-based
Settings: 20 min compound incubation, 75 uM cinnamaldehyde (~EC80), Hill coefficient fixed to 1.5, read-out: hTRPA1 AUC IC50
outcome-measure: IC50 (nM)

Use these answered entries as a reference point.
N#Cc1ccc(-c2cnc(C(F)(F)F)nc2)cc1CNC(=O)[C@@H]1[C@@H](F)CCN1S(=O)(=O)c1ccc(F)cc1
14
O=C(NCc1cc(F)cc(-c2ccc(C(F)(F)F)cn2)c1)[C@@H]1C[C@@H](F)CN1S(=O)(=O)c1ccc(F)cc1
12
O=C(NCc1cc(C2=CCC(C(F)(F)F)CC2)ncn1)[C@@H]1C[C@@H](F)CN1S(=O)(=O)c1ccc(F)cc1 (stereo partly shown)
46

I. O=C(NCc1cc(-c2ccc(C3CC3)cc2)ncn1)[C@@H]1C[C@@H](F)CN1S(=O)(=O)c1ccc(F)cc1
II. O=C(NCc1cncc(-c2cnc(C(F)(F)F)nc2)c1)[C@@H]1C[C@@H](F)CN1S(=O)(=O)c1ccc(F)cc1
III. O=C(NCc1cc([C@H]2CC[C@H](C(F)(F)F)CC2)ncn1)[C@@H]1C[C@@H](F)CN1S(=O)(=O)c1ccc(F)cc1 (single isomer, unassigned)
**Query** Thanks in advance: please rank these 3 entries by IC50, highest to lowest. Respond with the label ranking, as requested.
**Result** II, I, III
(II: 795 nM, I: 134 nM, III: 34 nM)
